B1: MCOLN1 (parent)
chain: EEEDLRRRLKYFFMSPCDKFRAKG

- Variants of: B1
- Assay overview: protein stability index of a GFP-peptide fusion (GPS, HEK-293T) (PSI 1-6); higher = more stable;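 note: lentivirally expressed fusions sorted by FACS into six bins by GFP to DsRed ratio, PSI derived from sequencing read proportions per bin multiplied by bin number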
- Condition: c terminus: a fixed tail appended
Note to self: values exactly at 2 are Met. So protein stability index at or above 2 is Met, below is Not met.

Answered cases to consult:
>>> assigned_category("L9P")
"Met"
>>> assigned_category("G24R")
"Not met"
>>> assigned_category("R21G")
"Met"
>>> assigned_category("R21F")
"Met"
>>> assigned_category("E2S")
"Not met"
>>> assigned_category("E1K")
"Not met"
>>> assigned_category("R6F")
"Not met"
>>> assigned_category("E3Q")
"Not met"
>>> assigned_category("D4Q")
"Not met"
>>> assigned_category("R7A")
"Met"

Q: Could you verify whether the entry `D4C` shows protein stability index of no less than 2?
A: Not met

Q: Could you verify whether the entry `R7Q` shows protein stability index of no less than 2?
A: Met

Q: Could you verify whether the entry `S15P` shows protein stability index of no less than 2?
A: Not met

Q: Could you verify whether the entry `K10V` shows protein stability index of no less than 2?
A: Met

Q: Could you verify whether the entry `K23D` shows protein stability index of no less than 2?
A: Met
